target_or_system: Receptor-type tyrosine-protein phosphatase C (Homo sapiens, UniProt P08575)
Sequence (P08575 whole entry): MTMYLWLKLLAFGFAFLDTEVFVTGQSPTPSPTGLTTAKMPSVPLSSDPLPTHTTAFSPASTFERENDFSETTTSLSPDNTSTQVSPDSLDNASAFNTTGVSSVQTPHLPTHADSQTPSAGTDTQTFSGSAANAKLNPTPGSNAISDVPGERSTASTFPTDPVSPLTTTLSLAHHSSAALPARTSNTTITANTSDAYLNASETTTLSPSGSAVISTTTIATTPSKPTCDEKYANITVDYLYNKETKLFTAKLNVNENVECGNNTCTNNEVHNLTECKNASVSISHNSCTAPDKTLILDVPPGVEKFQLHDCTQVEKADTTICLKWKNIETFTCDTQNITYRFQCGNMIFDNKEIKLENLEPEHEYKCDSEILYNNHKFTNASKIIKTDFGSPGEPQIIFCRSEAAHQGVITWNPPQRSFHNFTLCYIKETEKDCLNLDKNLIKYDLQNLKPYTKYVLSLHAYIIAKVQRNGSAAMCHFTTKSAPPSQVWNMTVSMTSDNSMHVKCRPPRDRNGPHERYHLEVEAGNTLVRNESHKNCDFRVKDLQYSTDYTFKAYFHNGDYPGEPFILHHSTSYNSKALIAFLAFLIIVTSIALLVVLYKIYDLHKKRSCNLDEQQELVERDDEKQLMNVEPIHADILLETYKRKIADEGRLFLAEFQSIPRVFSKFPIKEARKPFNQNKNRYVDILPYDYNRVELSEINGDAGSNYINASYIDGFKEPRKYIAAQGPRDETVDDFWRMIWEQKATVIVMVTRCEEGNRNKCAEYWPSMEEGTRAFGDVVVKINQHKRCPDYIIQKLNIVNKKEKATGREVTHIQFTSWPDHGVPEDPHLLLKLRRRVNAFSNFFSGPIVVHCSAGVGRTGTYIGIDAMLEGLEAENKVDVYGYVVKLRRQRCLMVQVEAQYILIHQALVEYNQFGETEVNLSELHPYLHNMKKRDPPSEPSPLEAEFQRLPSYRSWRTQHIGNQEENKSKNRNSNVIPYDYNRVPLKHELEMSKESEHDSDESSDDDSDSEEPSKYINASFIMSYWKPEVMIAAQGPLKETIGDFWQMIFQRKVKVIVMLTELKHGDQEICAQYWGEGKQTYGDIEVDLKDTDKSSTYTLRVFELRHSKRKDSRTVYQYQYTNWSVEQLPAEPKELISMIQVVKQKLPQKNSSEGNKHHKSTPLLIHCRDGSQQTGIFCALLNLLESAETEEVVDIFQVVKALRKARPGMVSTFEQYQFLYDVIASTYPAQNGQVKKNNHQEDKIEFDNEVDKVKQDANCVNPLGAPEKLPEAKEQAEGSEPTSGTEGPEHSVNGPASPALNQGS
property_name: Ki

stdin: Provide measured Ki on Receptor-type tyrosine-protein phosphatase C (Homo sapiens, UniProt P08575) for CCCCCNC(=O)C(Cc1ccc(N(C(=O)C(=O)O)c2ccccc2C(=O)O)c2ccccc12)NC(C)=O (stereo unspecified) please.
stdout: > 300 µM

---

# reported AUC; entries follow
protocol_description: Area under curve of compound was determined after oral administration in rat
Type: ADME, organism-based
conditions: in vivo
Note: unit ng·h/mL is implicit; provide only the numeric part.

# compound, endpoint_unit, value_measured
measured = [
    ("CCCCCNC(=O)C(Cc1ccc(N(C(=O)C(=O)O)c2ccccc2C(=O)O)c(CCO)c1)NC(C)=O (configuration not stated)", "ng·h/mL", 550),
]

API: the following record is the query input.
stdin: Specify AUC for CCCCCNC(=O)C(Cc1ccc(N(C(=O)C(=O)O)c2ccccc2C(=O)O)c(CC)c1)NC(C)=O (configuration not stated) and stop.
stdout: 940
